system: E. faecium L4001; type: cell-based, Enterococcus faecium; conditions: L4001
*1 amine or outer side, *2 acyl side, *3 side chain or, on linkers, in order; H or OH if unused. Where a SMILES comes first, the peptide text is derived from it. Bridges are numbered along the chain shown (N, C = ends). [ ]: non-standard residue; d: D form. The star is where a group is joined. Phe(3R-OH) = O=C([C@@H](N[*:1])[C@H](O[*:3])c1ccccc1)[*:2]; Asn(3S-OH) = NC(=O)[C@@H](O)[C@H](N)C(=O)O; Leu(3R-OH) = CC(C)[C@@H](O)[C@H](N)C(=O)O; Ala(SiMe3) = C[Si](C)(C)C[C@H](N)C(=O)O; dAla(TMS) = C[Si](C)(C)C[C@@H](N)C(=O)O; tBuAla = CC(C)(C)C[C@H](N)C(=O)O; aThr = C[C@H](O)[C@H](N)C(=O)O; dOrn = NCCC[C@@H](N)C(=O)O; Cbz = O=C(OCc1ccccc1)*
property-measured: MIC E. faecium L4001 (µg/mL)
Numbers only, in µg/mL.

Some solved cases for reference:
compound	MIC E. faecium L4001, µg/mL
CC[C@H](C)[C@@H]1NC(=O)[C@@H](CCCNC(=N)N)NC(=O)[C@H](CC(C)C)NC(=O)[C@H]([C@H](O)C(C)C)NC(=O)[C@@H](NC(=O)[C@H](CC(C)C)NC(=O)[C@H](N)CCSC)[C@@H](c2ccccc2)OC(=O)[C@H](CO)NC(=O)[C@H]([C@H](O)C(N)=O)NC(=O)CNC(=O)[C@H]([C@H](C)O)NC1=O [Example 24] (H-[dM]L[Phe(3R-OH)][Leu(3R-OH)]L[dR]I[aThr]G[Asn(3S-OH)]S; ester 3-C)	1
CC[C@H](C)[C@@H]1NC(=O)[C@@H](CCCNC(=N)N)NC(=O)[C@H](CC(C)C)NC(=O)[C@H]([C@H](O)C(C)C)NC(=O)[C@@H](NC(=O)[C@H](CC(C)C)NC(=O)[C@@H](N)C[Si](C)(C)C)[C@@H](c2ccccc2)OC(=O)[C@H](CO)NC(=O)[C@H]([C@H](O)C(N)=O)NC(=O)CNC(=O)[C@H]([C@H](C)O)NC1=O [Example 30] (H-[Ala(SiMe3)]L[Phe(3R-OH)][Leu(3R-OH)]L[dR]I[aThr]G[Asn(3S-OH)]S; ester 3-C)	0.5
CC[C@H](C)[C@@H]1NC(=O)[C@@H](CCCNC(=N)N)NC(=O)[C@H](CC(C)C)NC(=O)[C@H]([C@H](O)C(C)C)NC(=O)[C@@H](NC(=O)[C@H](CC(C)(C)C)NC(=O)[C@H](N)CC(C)C)[C@@H](c2ccccc2)OC(=O)[C@H](CO)NC(=O)[C@H]([C@H](O)C(N)=O)NC(=O)CNC(=O)[C@H]([C@H](C)O)NC1=O [Example 3] (H-[dL][tBuAla][Phe(3R-OH)][Leu(3R-OH)]L[dR]I[aThr]G[Asn(3S-OH)]S; ester 3-C)	0.25
CC[C@H](C)[C@@H]1NC(=O)[C@@H](CCCNC(=N)N)NC(=O)[C@H](CC(C)C)NC(=O)[C@H]([C@H](O)C(C)C)NC(=O)[C@@H](NC(=O)[C@H](CC(C)C)NC(=O)[C@H](N)CCCNC(=O)OCc2ccccc2)[C@@H](c2ccccc2)OC(=O)[C@H](CO)NC(=O)[C@H]([C@H](O)C(N)=O)NC(=O)CNC(=O)[C@H]([C@H](C)O)NC1=O [Example 62] (H-[dOrn](Cbz)L[Phe(3R-OH)][Leu(3R-OH)]L[dR]I[aThr]G[Asn(3S-OH)]S; ester 3-C)	0.5

Okay, next one:
input: Given the compound CC[C@H](C)[C@@H]1NC(=O)[C@@H](CCCNC(=N)N)NC(=O)[C@H](CC(C)C)NC(=O)[C@H]([C@H](O)C(C)C)NC(=O)[C@@H](NC(=O)[C@H](CC(C)C)NC(=O)[C@H](N)C[Si](C)(C)C)[C@@H](c2ccccc2)OC(=O)[C@H](CO)NC(=O)[C@H]([C@H](O)C(N)=O)NC(=O)CNC(=O)[C@H]([C@H](C)O)NC1=O [Example 59] (H-[dAla(TMS)]L[Phe(3R-OH)][Leu(3R-OH)]L[dR]I[aThr]G[Asn(3S-OH)]S; ester 3-C) , what is its reported MIC E. faecium L4001?
output: 0.25
